readout.name: melting point (°C)

{"columns": ["molecule", "melting point (°C)"],
 "data": [
  ["O=C(NO)c1ccc2c(c1)CCN(C(=O)C1CC1)C2 [Example 16]", 90]
]}

I = COc1ccc2[nH]c(C(=O)N3CCc4cc(C(=O)NO)ccc4C3)cc2c1 [Example 15]
II = Cc1nccn1CCC(=O)N1CCc2ccc(C(=O)NO)cc2C1.Cl
Identify the entry with the larger melting point. Options: I and II Select an item and report its label.
I
(I: 156 °C, II: 63 °C)

====

assay.info: Cellular cytotoxicity assay (Alamar Blue/Resazurin), A549
Type: cell-based
condition: human, A549 cells; A549, 72 hours incubation, Resazurin; read-out: A549 Cytotoxicity [pIC50] (converted)
Description: The anti-proliferative activity of the compounds as described herein, is evaluated with various solid and hematological cancer cell lines using the Alamar Blue (Resazurin) cell viability assay (O'Brien et al, Eur J Biochem 267, 5421-5426, 2000). […] After 4 hours incubation at 37° C. the fluorescence is measured at an extinction of 544 nm and an emission of 590 nm. […] Viabilities are expressed as % values. […]
Structures can show the parent of a compound that is named as a salt.
readout.name: IC50 at 72 h

Take a look at these entries with their results.
{"columns": ["compound", "test.result"],
 "data": [
  ["O=C(NO)c1ccc2c(c1)CCN(C(=O)Cc1ccccn1)C2 [Example 2, hydrochloride]", "> 100 µM"],
  ["CC(=O)N1CCc2cc(C(=O)NO)ccc2C1 [Example 12]", "> 100 µM"],
  ["COCCOCC(=O)N1CCc2cc(C(=O)NO)ccc2C1 [Example 11]", "> 100 µM"],
  ["O=C(NO)c1ccc2c(c1)CCN(C(=O)C1CCOC1)C2 (centres unmarked) [Example 13]", "> 100 µM"]
]}

Memo: COc1ccc2[nH]c(C(=O)N3CCc4ccc(C(=O)NO)cc4C3)cc2c1 [Example 24] , reported IC50 at 72 h: 1 to 100 µM

Where do the numbers come from? From patent US8575193B2.
